Assayed System: UniProt P06401
Assay Overview: Antagonist activity against progesterone receptor (PR) in an alkaline phosphatase assay in the T47D human breast carcinoma cell line
Type: functional, cell-based
pIC50: −log10 of the molar value.
Test Readout: pIC50

Previously resolved entries follow.
[
  {
    "Mol": "CC1(C)OC(=O)Nc2ccc(-c3cccc(Cl)c3)cc21",
    "Test Readout": "pIC50",
    "Observed Value": 7.52
  },
  {
    "Mol": "CC1(C)OC(=O)Nc2c(F)cc(-c3cc(F)cc(C#N)c3)cc21",
    "Test Readout": "pIC50",
    "Observed Value": 7.58
  },
  {
    "Mol": "CC1(C)OC(=O)Nc2ccc(-c3ccc(F)c(Cl)c3)cc21",
    "Test Readout": "pIC50",
    "Observed Value": 7.64
  },
  {
    "Mol": "CC1(C)OC(=O)Nc2ccc(-c3cccc(F)c3)cc21",
    "Test Readout": "pIC50",
    "Observed Value": 8.09
  },
  {
    "Mol": "CC1(C)OC(=O)Nc2ccc(-c3coc(C#N)c3)cc21",
    "Test Readout": "pIC50",
    "Observed Value": 8.10
  },
  {
    "Mol": "CC1(C)OC(=O)Nc2ccc(-c3ccc(F)c(C#N)c3)cc21",
    "Test Readout": "pIC50",
    "Observed Value": 7.82
  },
  {
    "Mol": "COc1cccc(-c2ccc3c(c2)C(C)(C)OC(=O)N3)c1",
    "Test Readout": "pIC50",
    "Observed Value": 7.71
  }
]

(1) CC1(C)OC(=O)Nc2ccc(-c3cccc(C#N)c3)cc21
(2) CC1(C)OC(=O)Nc2ccc(-c3ccccc3Cl)cc21
(3) CC1(C)OC(=O)Nc2ccc(-c3ccc(Cl)cc3)cc21
Input line: Please order the records by their reported pIC50, lowest number first. Please list each label once, in the requested order.
Output line: 2, 3, 1

====

Assayed System: Progesterone receptor (Homo sapiens, UniProt P06401)
Sequence (P06401 whole entry): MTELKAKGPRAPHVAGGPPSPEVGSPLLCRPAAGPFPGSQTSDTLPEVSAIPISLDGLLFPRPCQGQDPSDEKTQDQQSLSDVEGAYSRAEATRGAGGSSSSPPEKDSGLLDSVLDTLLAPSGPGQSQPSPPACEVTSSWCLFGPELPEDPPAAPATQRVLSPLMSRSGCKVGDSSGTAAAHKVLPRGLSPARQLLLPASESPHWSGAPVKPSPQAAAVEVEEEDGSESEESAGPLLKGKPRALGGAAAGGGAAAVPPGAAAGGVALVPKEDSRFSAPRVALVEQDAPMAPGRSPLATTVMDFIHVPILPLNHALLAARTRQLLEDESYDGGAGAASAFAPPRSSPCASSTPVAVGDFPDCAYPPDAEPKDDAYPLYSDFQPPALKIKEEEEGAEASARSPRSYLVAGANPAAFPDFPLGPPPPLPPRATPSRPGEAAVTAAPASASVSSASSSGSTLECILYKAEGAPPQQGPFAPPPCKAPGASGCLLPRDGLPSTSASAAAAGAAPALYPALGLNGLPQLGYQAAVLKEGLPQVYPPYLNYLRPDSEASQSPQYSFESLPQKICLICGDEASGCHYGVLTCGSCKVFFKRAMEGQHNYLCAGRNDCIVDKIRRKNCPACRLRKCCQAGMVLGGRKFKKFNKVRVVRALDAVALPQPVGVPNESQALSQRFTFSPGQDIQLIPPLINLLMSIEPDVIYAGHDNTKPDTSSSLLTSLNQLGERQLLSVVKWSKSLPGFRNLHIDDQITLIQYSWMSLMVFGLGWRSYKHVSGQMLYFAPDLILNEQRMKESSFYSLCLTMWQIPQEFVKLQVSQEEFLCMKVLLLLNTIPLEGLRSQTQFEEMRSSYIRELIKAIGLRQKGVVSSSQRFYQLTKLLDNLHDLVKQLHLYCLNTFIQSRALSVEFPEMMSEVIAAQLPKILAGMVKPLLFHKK
Assay Overview: Agonist activity against progesterone receptor (PR) in an alkaline phosphatase assay in the T47D human breast carcinoma cell line
pEC50: −log10 of the molar value.
Test Readout: pEC50

[
  {
    "Mol": "CC1(C)OC(=O)Nc2ccc(-c3csc(C#N)c3)cc21",
    "pEC50": 7.21
  }
]

(a) CC1(C)OC(=O)Nc2ccc(-c3cc(F)cc(Cl)c3)cc21
(b) CC1(C)OC(=O)Nc2ccc(-c3cc(F)cc(C#N)c3)cc21
Input line: Between the two listed entries a and b , which has its pEC50 at the higher number? Your choice should be expressed through its label.
Output line: b

====

Assayed System: Progesterone receptor (Rattus norvegicus) (UniProt Q63449)
Sequence (Q63449 whole entry): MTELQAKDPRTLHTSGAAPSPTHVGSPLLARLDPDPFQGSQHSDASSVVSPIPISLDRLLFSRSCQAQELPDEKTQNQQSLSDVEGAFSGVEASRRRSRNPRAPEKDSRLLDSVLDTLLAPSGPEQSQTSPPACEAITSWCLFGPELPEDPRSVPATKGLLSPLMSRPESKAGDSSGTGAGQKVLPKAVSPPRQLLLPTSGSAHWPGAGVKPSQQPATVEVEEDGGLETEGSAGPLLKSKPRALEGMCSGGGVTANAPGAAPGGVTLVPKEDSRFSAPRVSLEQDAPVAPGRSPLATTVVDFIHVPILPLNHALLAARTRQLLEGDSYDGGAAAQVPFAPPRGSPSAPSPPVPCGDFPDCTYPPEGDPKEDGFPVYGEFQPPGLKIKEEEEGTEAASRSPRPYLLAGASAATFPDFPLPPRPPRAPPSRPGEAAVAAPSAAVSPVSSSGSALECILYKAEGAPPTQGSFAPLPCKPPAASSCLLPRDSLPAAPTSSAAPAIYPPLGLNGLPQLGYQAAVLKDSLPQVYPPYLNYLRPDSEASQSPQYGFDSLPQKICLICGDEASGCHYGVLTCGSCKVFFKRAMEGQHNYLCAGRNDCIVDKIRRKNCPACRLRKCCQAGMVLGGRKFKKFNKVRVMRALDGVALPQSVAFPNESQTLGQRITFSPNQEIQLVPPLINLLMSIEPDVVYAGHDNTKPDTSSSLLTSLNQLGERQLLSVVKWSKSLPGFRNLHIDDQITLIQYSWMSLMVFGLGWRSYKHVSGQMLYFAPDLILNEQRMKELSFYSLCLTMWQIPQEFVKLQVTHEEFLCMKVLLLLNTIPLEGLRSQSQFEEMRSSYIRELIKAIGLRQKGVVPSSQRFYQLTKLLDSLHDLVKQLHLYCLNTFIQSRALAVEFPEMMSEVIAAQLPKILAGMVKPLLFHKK
Assay Overview: Inhibitory activity against progesterone receptor (PR) in ovariectomized mature female rat decidualization model
Format: functional
Test Readout: ED50 (mg/kg)

[
  {
    "Mol": "CC1(C)OC(=O)Nc2ccc(-c3csc(C#N)c3)cc21",
    "ED50 / mg/kg": 1.7
  }
]

(A) CC1(C)OC(=O)Nc2c(F)cc(-c3cc(F)cc(C#N)c3)cc21
(B) CC1(C)OC(=O)Nc2ccc(-c3cc(F)cc(Cl)c3)cc21
(C) CC#C[C@]1(O)CC[C@H]2[C@@H]3CCC4=CC(=O)CCC4=C3[C@@H](c3ccc(N(C)C)cc3)C[C@@]21C
Input line: # desc sort on ED50 across 3 compounds Returns: the labels arranged in the requested order.
Output line: B, A, C

(I) CC1(C)OC(=O)Nc2ccc(-c3cc(F)cc(C#N)c3)cc21
(II) CC1(C)OC(=O)Nc2ccc(-c3cccc(F)c3)cc21
(III) CC1(C)OC(=O)Nc2ccc(-c3cccc(C#N)c3)cc21
Input line: Please give the order of these compounds when sorted by ED50, largest value leading. Respond with an ordered listing of the labels, as requested.
Output line: III, II, I
(III: 7 mg/kg, II: 1.5 mg/kg, I: 0.3 mg/kg)

====

Assayed System: Progesterone receptor (Homo sapiens, UniProt P06401)
Assay Overview: Antagonist activity against the Progesterone Receptor (PR)
Assay type: functional
Recorded IC50 for the following molecules
Report only the number, with the unit µM understood.

[
  {
    "Mol": "CC1(C)OC(=O)Nc2ccc(-c3cc(F)cc(C#N)c3)cc21",
    "IC50 / µM": 0.0159
  }
]

Input line: Request the reported IC50 associated with CC1(C)OC(=O)Nc2ccc(-c3csc(C#N)c3)cc21
Output line: 0.0067

Input line: Can you share its IC50? I mean this molecule: CC1(C)OC(=O)Nc2ccc(-c3coc(C#N)c3)cc21
Output line: 0.0402

====

# key: entry, value: pIC50
Assayed System: Mineralocorticoid receptor (Homo sapiens, UniProt P08235)
Sequence (P08235 whole entry): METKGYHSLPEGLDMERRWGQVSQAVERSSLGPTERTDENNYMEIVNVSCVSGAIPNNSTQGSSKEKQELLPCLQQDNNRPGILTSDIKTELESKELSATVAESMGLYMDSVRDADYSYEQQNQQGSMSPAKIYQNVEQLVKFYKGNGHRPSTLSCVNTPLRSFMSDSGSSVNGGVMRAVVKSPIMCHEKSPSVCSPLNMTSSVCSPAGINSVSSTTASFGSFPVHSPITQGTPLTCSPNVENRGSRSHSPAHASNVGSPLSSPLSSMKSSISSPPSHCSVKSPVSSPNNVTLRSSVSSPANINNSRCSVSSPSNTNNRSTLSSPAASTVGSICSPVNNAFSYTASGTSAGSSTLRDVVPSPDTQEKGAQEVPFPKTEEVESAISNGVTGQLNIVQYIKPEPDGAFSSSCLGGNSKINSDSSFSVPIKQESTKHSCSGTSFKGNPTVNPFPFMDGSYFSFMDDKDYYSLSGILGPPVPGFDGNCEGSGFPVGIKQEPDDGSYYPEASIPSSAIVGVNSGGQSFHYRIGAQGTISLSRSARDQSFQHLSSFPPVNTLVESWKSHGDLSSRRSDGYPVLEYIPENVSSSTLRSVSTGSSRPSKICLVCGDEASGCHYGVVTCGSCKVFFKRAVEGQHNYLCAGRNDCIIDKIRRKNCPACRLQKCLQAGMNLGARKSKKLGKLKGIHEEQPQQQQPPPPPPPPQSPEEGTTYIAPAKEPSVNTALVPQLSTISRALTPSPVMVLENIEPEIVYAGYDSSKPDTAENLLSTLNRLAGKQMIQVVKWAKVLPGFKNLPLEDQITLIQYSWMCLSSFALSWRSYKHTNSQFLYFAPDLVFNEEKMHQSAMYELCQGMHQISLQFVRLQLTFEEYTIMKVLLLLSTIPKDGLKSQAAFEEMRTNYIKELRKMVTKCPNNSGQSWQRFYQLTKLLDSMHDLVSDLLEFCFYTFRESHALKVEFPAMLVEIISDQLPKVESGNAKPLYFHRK
Assay Overview: Antagonist activity against the Mineralocorticoid Receptor (MR)
Please keep in mind that pIC50 is minus log10 of the molar concentration; only the number is needed.

Consider the reported pIC50 for these compounds:
[
  {
    "Mol": "CC1(C)OC(=O)Nc2ccc(-c3ccc(F)c(Cl)c3)cc21",
    "Test Readout": "pIC50",
    "Observed Value": 5.60
  },
  {
    "Mol": "CC1(C)OC(=O)Nc2ccc(-c3cc(F)cc(C#N)c3)cc21",
    "Test Readout": "pIC50",
    "Observed Value": 5.63
  }
]

Please find the next compound below.
Input line: Endpoint output: pIC50 of CC1(C)OC(=O)Nc2ccc(-c3csc(C#N)c3)cc21 . Value?
Output line: 5.86

====

Assay Overview: Area under the curve (AUC) for the compound in female rats for a dose of 1 mg/kg administered intravenously.
Assay type: ADME, organism-based
Parameters: dose 1 mg/kg, route intravenous
Details: rat, in vivo, iv
Test Readout: AUC (ng·h/mL)

(P) CC1(C)OC(=O)Nc2ccc(-c3cccc(C#N)c3)cc21
(Q) CC1(C)OC(=O)Nc2ccc(-c3cc(F)cc(C#N)c3)cc21
Input line: Lab note: record which item had the higher AUC, P or Q . Answer = label.
Output line: Q
(Q: 3690 ng·h/mL, P: 460 ng·h/mL)

====

Each entry below carries its recorded IC50.
Assayed System: Progesterone receptor (Homo sapiens, UniProt P06401)
Sequence (P06401 whole entry): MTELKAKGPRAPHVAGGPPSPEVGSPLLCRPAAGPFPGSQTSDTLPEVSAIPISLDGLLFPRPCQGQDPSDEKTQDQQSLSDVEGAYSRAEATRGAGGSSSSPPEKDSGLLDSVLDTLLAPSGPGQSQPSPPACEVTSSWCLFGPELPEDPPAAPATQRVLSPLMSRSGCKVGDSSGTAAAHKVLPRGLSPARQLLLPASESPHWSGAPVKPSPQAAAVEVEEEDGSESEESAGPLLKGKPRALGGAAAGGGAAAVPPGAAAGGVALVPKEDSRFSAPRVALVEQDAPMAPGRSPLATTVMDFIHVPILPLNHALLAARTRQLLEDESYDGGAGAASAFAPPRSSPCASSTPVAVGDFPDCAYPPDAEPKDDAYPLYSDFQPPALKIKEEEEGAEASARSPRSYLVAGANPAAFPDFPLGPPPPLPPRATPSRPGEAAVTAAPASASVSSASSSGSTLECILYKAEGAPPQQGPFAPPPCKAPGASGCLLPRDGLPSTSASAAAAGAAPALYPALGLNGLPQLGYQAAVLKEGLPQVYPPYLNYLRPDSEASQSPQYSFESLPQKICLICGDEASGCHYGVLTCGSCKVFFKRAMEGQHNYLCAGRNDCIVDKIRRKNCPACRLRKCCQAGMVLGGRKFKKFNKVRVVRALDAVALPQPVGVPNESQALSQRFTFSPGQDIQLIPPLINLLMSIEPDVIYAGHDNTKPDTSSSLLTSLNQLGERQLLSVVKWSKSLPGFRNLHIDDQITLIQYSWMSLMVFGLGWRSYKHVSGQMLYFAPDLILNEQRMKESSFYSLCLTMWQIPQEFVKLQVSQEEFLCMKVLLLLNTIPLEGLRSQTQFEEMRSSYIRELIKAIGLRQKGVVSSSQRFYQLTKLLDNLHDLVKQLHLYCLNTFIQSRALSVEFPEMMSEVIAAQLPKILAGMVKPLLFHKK
Assay Overview: Antagonist activity against progesterone receptor (PR) in an assay using PRE-luciferase plasmid co-transfected CV-1 cells
Type: functional, cell-based
Report only the number, with the unit nM understood.

Example cases with answers are listed next.
[
  {
    "Mol": "CC1(C)OC(=O)Nc2ccc(-c3ccc(Cl)cc3)cc21",
    "Assayed System": "Progesterone receptor (Homo sapiens, UniProt P06401)",
    "Unit Annotation": "nM",
    "IC50": 642
  },
  {
    "Mol": "CC1(C)OC(=O)Nc2ccc(-c3csc(C#N)c3)cc21",
    "Assayed System": "Progesterone receptor (Homo sapiens, UniProt P06401)",
    "Unit Annotation": "nM",
    "IC50": 6.7
  }
]

Note: attention shifts to another entry.
Input line: May I ask what IC50 has been recorded for CC1(C)OC(=O)Nc2ccc(-c3coc(C#N)c3)cc21 ?
Output line: 40.2

This collection of values is drawn from ChEMBL document CHEMBL1135816.
